The following compounds are listed with their measured IC50 values.
# assayed_target: human recombinant AChE (hAChE) (Homo sapiens)
# Construct: purchased Sigma-Aldrich
# Sequence (P22303 32-614): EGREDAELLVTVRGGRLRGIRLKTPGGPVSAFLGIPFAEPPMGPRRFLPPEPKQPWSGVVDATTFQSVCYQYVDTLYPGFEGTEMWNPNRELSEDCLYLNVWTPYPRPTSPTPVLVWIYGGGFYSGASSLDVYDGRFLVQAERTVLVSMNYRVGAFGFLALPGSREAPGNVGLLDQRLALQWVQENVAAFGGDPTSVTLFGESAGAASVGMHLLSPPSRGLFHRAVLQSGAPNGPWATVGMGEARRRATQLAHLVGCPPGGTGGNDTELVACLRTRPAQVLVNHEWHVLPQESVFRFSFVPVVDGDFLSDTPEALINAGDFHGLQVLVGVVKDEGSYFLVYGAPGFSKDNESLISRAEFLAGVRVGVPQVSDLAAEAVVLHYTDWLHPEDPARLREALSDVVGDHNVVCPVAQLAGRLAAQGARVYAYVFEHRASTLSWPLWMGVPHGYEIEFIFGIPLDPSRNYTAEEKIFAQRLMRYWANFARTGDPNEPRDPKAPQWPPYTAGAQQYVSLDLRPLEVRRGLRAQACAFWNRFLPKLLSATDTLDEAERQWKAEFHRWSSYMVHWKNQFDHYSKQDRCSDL
# assay_details: biochemical
# conditions_used: mean ± SEM
quantity_measured: IC50 (µM)

compound="COc1cccc(C2c3c(nc4n(c3=O)CCC4)Oc3ccc4ccccc4c32)c1 (stereo not shown)" quantity_measured=IC50 endpoint_unit=µM experimental_value=1.53
compound="Cc1ccc(C2c3c(nc4n(c3=O)CCCC4)Oc3ccc4ccccc4c32)cc1 (stereo not shown)" quantity_measured=IC50 endpoint_unit=µM experimental_value=1.59
compound="COc1cccc(C2c3c(nc4n(c3=O)CCCC4)Oc3ccc4ccccc4c32)c1 (stereo not shown)" quantity_measured=IC50 endpoint_unit=µM experimental_value=1.28
compound="O=c1c2c(nc3n1CCCC3)Oc1ccc3ccccc3c1C2c1ccccc1 (stereo not shown)" quantity_measured=IC50 endpoint_unit=µM experimental_value=3.66
